Sequence of the target: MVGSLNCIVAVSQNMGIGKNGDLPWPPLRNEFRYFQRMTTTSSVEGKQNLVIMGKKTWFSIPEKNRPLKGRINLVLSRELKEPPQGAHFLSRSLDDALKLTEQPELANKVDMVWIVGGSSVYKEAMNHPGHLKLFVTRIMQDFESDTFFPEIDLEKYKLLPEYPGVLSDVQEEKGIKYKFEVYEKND
pIC50: −log10 of the molar value.
outcome_measure: pIC50

> print(dat)
                              line.notation  outcome.measure   val
1   Cc1n[nH]c2nn(-c3ccc(S(N)(=O)=O)cc3)nc12            pIC50  5.84
2  Cc1n[nH]c2c(C#N)c(=O)n(-c3ccc(S(N)(=O)=O)cc3)nc12            pIC50  5.28

* * *

Recorded below: MIC, system E. coli RCMB 010052.
outcome_measure: MIC (µg/mL)

> print(dat)
                              line.notation  outcome.measure   val
1  Cc1nnc2c(C#N)c(N)n(-c3ccc(S(N)(=O)=O)cc3)nc1-2              MIC  0.49
2      CC1=NNC(=O)C1=NNc1ccc(S(N)(=O)=O)cc1              MIC  0.98
3            CC1=NNC(=O)C1=NNc1cccc2ccccc12              MIC   250
4  Cc1n[nH]c2c(C#N)c(=O)n(-c3ccc(S(N)(=O)=O)cc3)nc12              MIC  0.98

* * *

Items are presented alongside their recorded melting point.
outcome_measure: melting point

> print(dat)
                                   molecule  outcome.measure            val
1  Cc1n[nH]c2nn(-c3cccc4ccccc34)nc12 [Compound 9b]    melting point       > 300 °C
2  Cc1n[nH]c2c(C#N)c(=O)n(-c3cccc4ccccc34)nc12 [Compound 6d]    melting point  282 to 284 °C
3  Cc1n[nH]c2nn(-c3ccc(S(N)(=O)=O)cc3)nc12 [Compound 9a]    melting point       > 300 °C
4  Cc1nnc2n(-c3ccccc3)c(=S)n(-c3ccc(S(N)(=O)=O)cc3)nc1-2 [Compound 8a]    melting point  275 to 277 °C
